Target: Mgal-WhiA (Mycoplasma gallisepticum S6, UniProt A0A0F6CKV5 1-295)
Experiment: EMSA; 1 mM ATP; total binding; unit not printed (nM implied); EMSA: 20 mM carbonate pH 9.8, 6% glycerol, 37 C 10 min, gel at 10 C; MST: PBS (10 mM Na phosphate pH 7.4, 140 mM NaCl, 3 mM KCl), 0.05% Tween-20, 50 mM imidazole, 50 nM duplex, 20 C
Conditions: protein: recombinant; label: 5' FAM on strand 1; blunt
pKd: −log10 of the molar value.
property-measured: pKd

1) Mut1 (dsDNA) DNA 1: AAAGATTGCTGATACACCAAAAACCAGACTCAAGTATCAG DNA 2: CTGATACTTGAGTCTGGTTTTTGGTGTATCAGCAATCTTT :: 6.37
